target: Receptor tyrosine-protein kinase erbB-2 (Homo sapiens) (UniProt P04626); assay: reducers of endogenous Her2 protein level, primary screen, SKBR3 breast tumor cells, AlphaScreen, ATP viability (AID 461); details: 18-24 h, at 10 µM, hits give low values;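 also: lower value means less Her2 protein in the cells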
Sequence (P04626 whole entry, looked up): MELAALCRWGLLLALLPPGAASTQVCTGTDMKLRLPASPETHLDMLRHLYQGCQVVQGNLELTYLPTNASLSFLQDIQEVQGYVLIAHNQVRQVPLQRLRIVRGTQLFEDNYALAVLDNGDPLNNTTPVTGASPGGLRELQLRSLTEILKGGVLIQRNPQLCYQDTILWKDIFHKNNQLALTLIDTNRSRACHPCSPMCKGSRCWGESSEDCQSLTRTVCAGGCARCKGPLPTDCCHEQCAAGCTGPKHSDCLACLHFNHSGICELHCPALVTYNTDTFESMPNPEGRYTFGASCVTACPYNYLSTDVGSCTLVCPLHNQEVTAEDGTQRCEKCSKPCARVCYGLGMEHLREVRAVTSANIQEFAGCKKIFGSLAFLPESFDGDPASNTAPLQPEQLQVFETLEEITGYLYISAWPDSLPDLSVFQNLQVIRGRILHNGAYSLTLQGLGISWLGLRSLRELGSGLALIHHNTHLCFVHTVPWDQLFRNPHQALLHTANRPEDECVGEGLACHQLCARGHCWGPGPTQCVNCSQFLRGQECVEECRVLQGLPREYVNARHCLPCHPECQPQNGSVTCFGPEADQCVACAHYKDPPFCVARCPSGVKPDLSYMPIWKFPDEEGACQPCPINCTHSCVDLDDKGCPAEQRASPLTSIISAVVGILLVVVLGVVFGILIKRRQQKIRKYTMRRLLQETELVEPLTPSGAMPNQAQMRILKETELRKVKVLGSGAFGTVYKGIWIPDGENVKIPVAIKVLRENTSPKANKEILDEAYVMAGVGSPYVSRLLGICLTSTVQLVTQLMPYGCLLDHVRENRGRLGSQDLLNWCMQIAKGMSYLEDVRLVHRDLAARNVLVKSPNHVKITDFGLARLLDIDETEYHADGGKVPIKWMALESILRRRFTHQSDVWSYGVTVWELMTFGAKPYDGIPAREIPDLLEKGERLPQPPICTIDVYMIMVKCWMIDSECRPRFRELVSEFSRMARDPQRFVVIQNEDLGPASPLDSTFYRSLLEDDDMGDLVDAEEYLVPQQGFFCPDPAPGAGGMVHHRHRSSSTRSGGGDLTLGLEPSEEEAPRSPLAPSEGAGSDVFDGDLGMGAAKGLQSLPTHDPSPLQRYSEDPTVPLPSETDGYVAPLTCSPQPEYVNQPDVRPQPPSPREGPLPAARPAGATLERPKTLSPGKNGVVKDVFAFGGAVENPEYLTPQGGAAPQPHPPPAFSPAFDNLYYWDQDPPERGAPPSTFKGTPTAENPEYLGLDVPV

| MOLECULE | Her2 level / % |
| --- | --- |
| COc1cccc(-c2nnc3sc(-c4ccc(C)cc4)nn23)c1 | 81 |
| COc1ccccc1N1CC(C(=O)Nc2cccc(C(=O)O)c2)CC1=O (centres undefined) | 103 |
| COc1ccccc1OCC(=O)N1CCNC1=O | 96.5 |
| Cc1cccc2cc(COC(=O)C(C)(C)C)c(=O)[nH]c12 | 91.5 |
| COCCNC(=O)C(c1ccc(C)o1)N(Cc1ccc(F)cc1)C(=O)Cn1nnc2ccccc21 (centres undefined) | 95 |
| O=C(CSc1nnc(Cc2cccs2)n1Cc1ccco1)Nc1cccc(Cl)c1 | 64 |
| Nn1c(SCc2csc(-c3ccccc3)n2)nnc1-c1cccs1 | 82.5 |
| CC(C)[C@H](NC(=O)NC1CCCC1)C(=O)O | 97.5 |
| CSc1nc(C)cc(Oc2ccc(=O)n(C)n2)n1 | 89.5 |
| CCOC(=O)CNC(=O)CSc1ncnc2c1cnn2Cc1ccccc1 | 82.5 |
| Cc1cccc(C(=O)N2CCC(n3nnc4cc(F)ccc43)CC2)c1 | 113 |
| Cc1ccc(-n2nnnc2SCC(=O)c2cc(C)n(CC3CCCO3)c2C)cc1 (centres undefined) | 106 |
| Cc1ccc(-n2ncc3c(Nc4c(C)n(C)n(-c5ccccc5)c4=O)ncnc32)c(C)c1 | 94.5 |
| CC(C)CCNC(=O)NC(=O)COc1ccccc1C#N | 109 |
| Cc1oc(-c2ccccc2F)nc1CS(=O)(=O)CC(=O)N1CCN(Cc2ccccc2)CC1 | 91.5 |
| Oc1c(Cl)cc(Cl)cc1CNc1ccc(Br)cn1 | 88 |
| CCNc1nc(N2CCOCC2)nc(N(c2ccccc2)c2ccccc2)n1 | 97 |
| COCCNC(=O)Cn1nc(C(F)(F)F)c(Br)c1C | 104 |
| Cc1cc(C)cc(NS(=O)(=O)c2ccc3[nH]cc(C(=O)NCc4ccco4)c(=O)c3c2)c1 | 87 |
| Cc1nc(N)c(C#N)c(-c2cccnc2)c1C | 83.5 |
| CCOC(=O)c1sc2nc(C)cc(C)c2c1N | 95 |
| O=C(CSc1nnc(-c2cccnc2)o1)Nc1ccccn1 | 102 |
| CCOC(=O)C1(C)NC(c2ccc(OC)c(OC)c2)C2C(=O)N(CC)C(=O)C21 (centres undefined) | 106 |
| COC(=O)c1ccc(COc2ncnc3c(Cl)cc(Cl)cc23)o1 | 100 |

The measured values listed here are drawn from PubChem BioAssay.
